Test system: human red blood cells
Set-up: unit not given beside the values
Non-standard residues stand in square brackets, D forms with d. Residues, ends and D or L forms follow the SMILES beside them. Dip = N[C@H](C(=O)O)C(c1ccccc1)c1ccccc1; 2Nal = N[C@@H](Cc1ccc2ccccc2c1)C(=O)O
HC50 by entry:

compound	HC50
N=C(N)NCCC[C@H](NC(=O)[C@H](CCCNC(=N)N)NC(=O)[C@H](CCCNC(=N)N)NC(=O)[C@@H](N)CCCNC(=N)N)C(=O)N[C@@H](Cc1ccc2ccccc2c1)C(=O)N[C@@H](Cc1ccc2ccccc2c1)C(=O)N[C@@H](Cc1ccc2ccccc2c1)C(=O)O [IFX-009-1, NH2-Arg-Arg-Arg-Arg-NaI-NaI-NaI-OH] (H-RRRR[2Nal][2Nal][2Nal]-OH)	260
N=C(N)NCCC[C@H](NC(=O)[C@H](CCCNC(=N)N)NC(=O)[C@@H](N)CCCNC(=N)N)C(=O)N[C@@H](CCCNC(=N)N)C(=O)N[C@H](C(=O)N[C@H](C(=O)N[C@H](C(=O)O)C(c1ccccc1)c1ccccc1)C(c1ccccc1)c1ccccc1)C(c1ccccc1)c1ccccc1 [IFX-008-1, NH2-Arg-Arg-Arg-Arg-Dip-Dip-Dip-OH] (H-RRRR[Dip][Dip][Dip]-OH)	210
N=C(N)NCCC[C@H]1NC(=O)[C@@H](CCCNC(=N)N)NC(=O)[C@@H](CCCNC(=N)N)NC(=O)[C@@H](Cc2c[nH]c3ccccc23)NC(=O)[C@@H](Cc2c[nH]c3ccccc23)NC(=O)[C@@H](Cc2c[nH]c3ccccc23)NC(=O)[C@@H](Cc2c[nH]c3ccccc23)NC(=O)[C@@H](CCCNC(=N)N)NC1=O [IFX-032, c[arg-arg-arg-arg-trp-trp-trp-trp]] (cyclo([dR][dR][dR][dR][dW][dW][dW][dW]))	230
NCCCC[C@@H]1NC(=O)[C@H](CCCCN)NC(=O)[C@H](CCCCN)NC(=O)[C@H](C(c2ccccc2)c2ccccc2)NC(=O)[C@H](C(c2ccccc2)c2ccccc2)NC(=O)[C@H](C(c2ccccc2)c2ccccc2)NC(=O)[C@H](CCCCN)NC1=O [IFX-014, c[Lys-Lys-Lys-Lys-Dip-Dip-Dip]] (cyclo([Dip][Dip][Dip]KKKK))	415
N=C(N)NCCC[C@@H]1NC(=O)[C@H](CCCNC(=N)N)NC(=O)[C@H](Cc2ccc3ccccc3c2)NC(=O)[C@H](Cc2ccc3ccccc3c2)NC(=O)[C@H](CCCNC(=N)N)NC(=O)[C@H](CCCNC(=N)N)NC(=O)[C@H](Cc2ccc3ccccc3c2)NC1=O [IFX-018, c[Arg-NaI-Arg-Arg-NaI-NaI-Arg]] (cyclo(R[2Nal]RR[2Nal][2Nal]R))	300
N=C(N)NCCC[C@H](NC(=O)[C@H](CCCNC(=N)N)NC(=O)[C@@H](NC(=O)[C@@H](NC(=O)[C@H](CCCNC(=N)N)NC(=O)[C@@H](N)CCCNC(=N)N)C(c1ccccc1)c1ccccc1)C(c1ccccc1)c1ccccc1)C(=O)N[C@H](C(=O)O)C(c1ccccc1)c1ccccc1 [IFX-017-1, NH2-Arg-Arg-Dip-Dip-Arg-Arg-Dip-OH] (H-RR[Dip][Dip]RR[Dip]-OH)	370
N=C(N)NCCC[C@H](NC(=O)[C@H](CCCNC(=N)N)NC(=O)[C@H](CCCNC(=N)N)NC(=O)[C@@H](N)CCCNC(=N)N)C(=O)N[C@@H](Cc1c[nH]c2ccccc12)C(=O)N[C@@H](Cc1ccc2ccccc2c1)C(=O)N[C@@H](Cc1ccc2ccccc2c1)C(=O)O [IFX-029-1, NH2-R-R-R-R-Trp-NaI-NaI-OH] (H-RRRRW[2Nal][2Nal]-OH)	400
N=C(N)NCCC[C@H](NC(=O)[C@H](Cc1ccc2ccccc2c1)NC(=O)[C@H](Cc1ccc2ccccc2c1)NC(=O)[C@H](CCCNC(=N)N)NC(=O)[C@H](CCCNC(=N)N)NC(=O)[C@H](Cc1ccc2ccccc2c1)NC(=O)[C@@H](N)CCCNC(=N)N)C(=O)O [IFX-018-1, NH2-Arg-NaI-Arg-Arg-NaI-NaI-Arg-OH] (H-R[2Nal]RR[2Nal][2Nal]R-OH)	405
N=C(N)NCCC[C@@H]1NC(=O)[C@H](CCCNC(=N)N)NC(=O)[C@H](CCCNC(=N)N)NC(=O)[C@H](Cc2ccc3ccccc3c2)NC(=O)[C@H](Cc2c[nH]c3ccccc23)NC(=O)[C@H](Cc2ccc3ccccc3c2)NC(=O)[C@H](CCCNC(=N)N)NC1=O [IFX-030, c[Arg-Arg-Arg-Arg-NaI-Trp-NaI]] (cyclo(RRRR[2Nal]W[2Nal]))	430
N=C(N)NCCC[C@@H]1NC(=O)[C@H](CCCNC(=N)N)NC(=O)[C@H](Cc2ccc3ccccc3c2)NC(=O)[C@H](Cc2c[nH]c3ccccc23)NC(=O)[C@H](Cc2ccc3ccccc3c2)NC(=O)[C@H](CCCNC(=N)N)NC1=O [IFX-024, c[Arg-Arg-Arg-NaI-Trp-NaI]] (cyclo(RRR[2Nal]W[2Nal]))	250
N=C(N)NCCC[C@@H]1NC(=O)[C@H](CCCNC(=N)N)NC(=O)[C@H](CCCNC(=N)N)NC(=O)[C@H](Cc2ccc3ccccc3c2)NC(=O)[C@H](Cc2ccc3ccccc3c2)NC(=O)[C@H](Cc2ccc3ccccc3c2)NC(=O)[C@H](Cc2ccc3ccccc3c2)NC(=O)[C@H](CCCNC(=N)N)NC1=O [IFX-006, c[Arg-Arg-Arg-Arg-NaI-NaI-NaI-NaI]] (cyclo([2Nal][2Nal][2Nal][2Nal]RRRR))	120

###

HC50 at 0.5 h by entry:
Assay: in vitro
Details: human, fresh human red blood cells (washed), pH 7.4
Non-standard residues stand in square brackets, D forms with d. Residues, ends and D or L forms follow the SMILES beside them. dDip = N[C@@H](C(=O)O)C(c1ccccc1)c1ccccc1; Dip = N[C@H](C(=O)O)C(c1ccccc1)c1ccccc1; 2Nal = N[C@@H](Cc1ccc2ccccc2c1)C(=O)O; d2Nal = N[C@H](Cc1ccc2ccccc2c1)C(=O)O

molecule	HC50 at 0.5 h, µg/mL
N=C(N)NCCC[C@H]1NC(=O)[C@@H](CCCNC(=N)N)NC(=O)[C@@H](CCCNC(=N)N)NC(=O)[C@@H](Cc2ccc3ccccc3c2)NC(=O)[C@@H](Cc2ccc3ccccc3c2)NC(=O)[C@@H](Cc2c[nH]c3ccccc23)NC(=O)[C@@H](CCCNC(=N)N)NC1=O [IFX-115, c[arg-arg-arg-arg-trp-naI-naI]] (cyclo([dR][dR][dR][dR][dW][d2Nal][d2Nal]))	360
NCCCC[C@@H]1NC(=O)[C@@H](CCCCN)NC(=O)[C@H](CCCCN)NC(=O)[C@@H](Cc2ccc3ccccc3c2)NC(=O)[C@@H](Cc2ccc3ccccc3c2)NC(=O)[C@H](Cc2c[nH]c3ccccc23)NC(=O)[C@@H](CCCCN)NC1=O [IFX-129, c[Lys-lys-Lys-lys-Trp-naI-naI]] (cyclo(K[dK]K[dK]W[d2Nal][d2Nal]))	420
N=C(N)NCCC[C@H]1NC(=O)[C@H](C(c2ccccc2)c2ccccc2)NC(=O)[C@H](C(c2ccccc2)c2ccccc2)NC(=O)[C@H](C(c2ccccc2)c2ccccc2)NC(=O)[C@@H](CCCNC(=N)N)NC(=O)[C@@H](CCCNC(=N)N)NC(=O)[C@@H](CCCNC(=N)N)NC1=O [IFX-073, c[arg-arg-arg-arg-Dip-Dip-Dip]] (cyclo([dR][dR][dR][dR][Dip][Dip][Dip]))	245
N=C(N)NCCC[C@@H]1NC(=O)[C@H](CCCNC(=N)N)NC(=O)[C@H](Cc2ccc3ccccc3c2)NC(=O)[C@H](Cc2ccc3ccccc3c2)NC(=O)[C@@H](Cc2c[nH]c3ccccc23)NC(=O)[C@H](CCCNC(=N)N)NC(=O)[C@H](CCCNC(=N)N)NC1=O [IFX-104, c[Arg-Arg-Arg-Arg-trp-NaI-NaI]] (cyclo([2Nal][2Nal]RRRR[dW]))	155
N=C(N)NCCC[C@@H]1NC(=O)[C@H](CCCNC(=N)N)NC(=O)[C@H](CCCNC(=N)N)NC(=O)[C@H](CCCNC(=N)N)NC(=O)[C@@H](Cc2ccc3ccccc3c2)NC(=O)[C@H](Cc2ccc3ccccc3c2)NC(=O)[C@H](Cc2ccc3ccccc3c2)NC1=O [IFX-074, c[Arg-Arg-Arg-Arg-NaI-NaI-naI]] (cyclo(RRRR[2Nal][2Nal][d2Nal]))	200
N=C(N)NCCC[C@@H]1NC(=O)[C@@H](CCCNC(=N)N)NC(=O)[C@H](CCCNC(=N)N)NC(=O)[C@@H](C(c2ccccc2)c2ccccc2)NC(=O)[C@@H](C(c2ccccc2)c2ccccc2)NC(=O)[C@@H](C(c2ccccc2)c2ccccc2)NC(=O)[C@@H](CCCNC(=N)N)NC1=O [IFX-070, c[Arg-arg-Arg-arg-dip-dip-dip]] (cyclo(R[dR]R[dR][dDip][dDip][dDip]))	340
